For each of the variants below, state its protein stability index.
B1: SLC6A17 (parent)
chain: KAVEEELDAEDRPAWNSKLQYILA

Variants of: B1
Assay: protein stability index of a GFP-peptide fusion (GPS, HEK-293T) (PSI 1-6); higher = more stable;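 also: lentivirally expressed fusions sorted by FACS into six bins by GFP to DsRed ratio, PSI derived from sequencing read proportions per bin multiplied by bin number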
Conditions: c terminus: a fixed tail appended
Answer with a bare number; do not write a unit.

So what's the measured protein stability index for this one? L23I
2.64

So what's the measured protein stability index for this one? D11M
1.69

So what's the measured protein stability index for this one? P13E
2.41

So what's the measured protein stability index for this one? E4C
2.31

So what's the measured protein stability index for this one? Y21K
3.67

So what's the measured protein stability index for this one? Y21R
2.8

So what's the measured protein stability index for this one? W15V
2.2

So what's the measured protein stability index for this one? W15M
3.74

So what's the measured protein stability index for this one? K1N
3.17

So what's the measured protein stability index for this one? E4D
2.79

So what's the measured protein stability index for this one? R12V
2.54

So what's the measured protein stability index for this one? Y21I
3.09

So what's the measured protein stability index for this one? S17C
1.99

So what's the measured protein stability index for this one? P13C
2.28

So what's the measured protein stability index for this one? L19C
3.56

So what's the measured protein stability index for this one? V3A
3.18
